Data credit: ChEMBL document CHEMBL1130099

# Test Summary: The plasma half life of compound was determined on heparin prepared by mouse plasma.
# Type: ADME
Recorded Metric: half-life (min)
Write it as a number; the unit min goes unstated.

Prompt: Which value of half-life has been reported for CC(C)[C@H](CC(=O)[C@H](CC(=O)O)NC(=O)[C@H](CCCCN)NC(=O)[C@@H](N)CCCN=C(N)N)C(=O)N[C@@H](Cc1ccccc1)C(=O)O (stereo in doubt; 3a-A) in the records?
Completion: 2.4
